Ref: patent US6632829B2

- ASSAY PROTOCOL: Oral half-life and peak plasma levels
- Format: in vivo
- STUDY CONDITIONS: rat, in vivo
ASSAY READOUT: Peak Plasma Levels (µg/mL)

CHEM SMILES: Cc1cc2c(cc1CC(=O)c1sccc1S(=O)(=O)Nc1onc(C)c1Cl)OCO2
Peak Plasma Levels / µg/mL: 173

a. Cc1cc(C)c(NS(C)(=O)=O)c(C)c1NC(=O)c1sccc1S(=O)(=O)Nc1onc(C)c1Cl
b. Cc1cc(C)c(NC(=O)c2sccc2S(=O)(=O)Nc2onc(C)c2Cl)c(C)c1O
Hey, between a and b which has a smaller measured Peak Plasma Levels? Answer by quoting the chosen item's label.
a
